Tested on: IGROV1 ovarian
protocol details: NCI tumour cell line growth inhibition, 48 h
In this section we review reported GI50 values for a set of compounds.
measured property: GI50

>  <compound>
Nc1nc(N)c2nc(CNc3ccc(C(=O)CC(CCC(=O)O)C(=O)O)cc3)cnc2n1 (stereo not drawn)

>  <result>
465 nM

$$$$
>  <compound>
C#C[C@@]1(O)[C@@H](CO)O[C@@H](n2cc(Cl)c3c(N)ncnc32)[C@@H]1O

>  <result>
145 nM

$$$$
>  <compound>
COc1cc2c(c(OC)c1OC)-c1ccc([O-])c(=O)cc1[C@@H](NC(C)=O)CC2.COc1cc2c(c(OC)c1OC)-c1ccc([O-])c(=O)cc1[C@@H](NC(C)=O)CC2.[Cu+2]

>  <result>
5590 nM

$$$$
>  <compound>
CCc1ccc(C2=C/C(=C/c3ccc(Cl)cc3)C(=O)N2CCc2ccc(S(N)(=O)=O)cc2)cc1

>  <result>
3260 nM

$$$$
>  <compound>
CC(=O)O[C@H](C[C@H](C(C)C)N(C)C(=O)[C@@H](NC(=O)[C@H]1CCCCN1C)C(C)C)c1nc(C(=O)N[C@@H](Cc2ccccc2)C[C@H](C)C(=O)O)c(C)s1

>  <result>
3.02 nM

$$$$
>  <compound>
CCCCCCCCCCCCCOC(=O)c1c(C)[nH]c(/C=C2\N=C(c3ccc[nH]3)C=C2OC)c1C

>  <result>
122 nM

$$$$
>  <compound>
COc1ccc(C(=O)/C=C/c2cc3ccccc3[nH]c2=O)cc1

>  <result>
28600 nM

$$$$
>  <compound>
O=c1oc2ccc(Cl)cc2c(=O)n1-c1ccc(Cl)cc1F

>  <result>
237 nM

$$$$
